Reference for the values: ChEMBL document CHEMBL1201862

# Tested on: TK-10
# method: NCI tumour cell line growth inhibition, 48 h
Active and inactive are the calls of the source. Cut-off read from the data, not from the text of the source: active = GI50 up to about 1.1 µM and inactive = higher.
Pick from 1 (active), -1 (inactive) when you respond.

Worked set:
In [3]: df
Out[3]:
                                   compound  qualitative_label
0  CCCCCCCCCCCCCCCCCCN(C)CC(COC)OP(=O)([O-])OCC[N+](C)(C)C (stereo unspecified)                  1
1  C[C@]12CCC3[C@@H](CC[C@@H]4c5nonc5CC[C@]34C)C1CCC(=O)N2 (stereo partly specified)                 -1
2  COC1(OC)c2ccccc2C2(O)c3ccccc3C(=O)C12 (stereo unspecified)                 -1
3  CC(CN(C)C)C(O)(c1ccccc1)c1ccccc1 (stereo unspecified)                 -1
4  CC1(C)CC(=O)C2=C(C1)NC(=S)C(C#N)C2c1ccccc1 (stereo unspecified)                 -1

Call for entry COc1ccc(-c2cc(=O)c3c(OC)c(OC)c(OC)c(OC)c3o2)cc1 [TANGERETIN] :
-1

Call for entry Cc1cc(O)cc2c1c(=O)c1ccccc1n2C :
-1

Call for entry NC(Cc1c[nH]c2ccccc12)P(=O)(O)O (stereo unspecified) :
-1

Call for entry CN(C)Cc1nsc(N(C)C)n1 :
-1

Call for entry COc1cc2oc(=O)cc(C)c2cc1OC :
-1

Call for entry COc1cc2c(cc1OC)CC(N=[N+]=[N-])c1cc(OC)c(OC)cc1/C=C\2 (stereo unspecified) :
-1

###

# System: OVCAR-3
# method: NCI tumour cell line growth inhibition, 48 h
The source made the active and inactive calls. Rule as the data show it: active = GI50 up to about 1.1 µM and inactive = higher.
Reported GI50 values follow for various molecules

In [3]: df
Out[3]:
                                   molecule       value_measured
0    Cc1ccc(Cl)cc1/N=N/C(=O)NNc1cc(Cl)ccc1C   14.7 µM (inactive)
1  Cc1ccc(S[C@@H](C)[C@@](O)(CF)CN(Cc2ccccc2)C(=O)C(F)(F)F)cc1   13.7 µM (inactive)
2  C[C@@H]1O[C@@H]2OCC[C@@H]2C2=C1C(=O)c1ccccc1C2=O   3.08 µM (inactive)
3  O=C(N/C(=C\c1ccc(F)cc1)c1nc2ccccc2[nH]1)c1ccccc1  > 100 µM (inactive)
4      CCCCOc1ccc(/C=C/C2=[N+](CCO)CCO2)cc1   61.5 µM (inactive)

Entry CCOC(=O)c1ccc(NC(NC(=O)CC)(C(F)(F)F)C(F)(F)F)cc1 : reported GI50 = ?
> 100 µM (inactive)

Entry CN(C)c1ccc(/C(F)=C(F)/C(F)=C(F)/C(F)=C(\F)c2ccc(Br)cc2)cc1 : reported GI50 = ?
9.38 µM (inactive)

Entry O=c1c(C(c2ccc([N+](=O)[O-])cc2)c2c(O)c3ccccc3n(-c3ccccc3)c2=O)c(O)c2ccccc2n1-c1ccccc1 : reported GI50 = ?
24.1 µM (inactive)

Entry CNC(C)(C)Cc1ccc(Cl)cc1 : reported GI50 = ?
> 100 µM (inactive)

Entry N#CC(C#N)=C(N)/C(C#N)=C/c1ccc(O)c(O)c1 : reported GI50 = ?
37.5 µM (inactive)

Entry C/C=C(\C)C(O)C(C)C(O)C/C=C(C)/C=C(\C)C/C(C)=C/C/C=C(\C)C(O)C(C)c1ccc(CCC)c(=O)o1 (stereo unspecified) : reported GI50 = ?
12.1 µM (inactive)

Entry Clc1ccc2c(c1)-c1c3c(nn1-c1ccccc1)-c1ccccc1SC3O2 (stereo unspecified) : reported GI50 = ?
> 100 µM (inactive)

Entry COc1cc2c(cc1OC)C(=O)/C(=C/c1cc(Cl)cc(Cl)c1)C2 : reported GI50 = ?
3.33 µM (inactive)

Entry CC(=O)Nc1ccc(-c2nnc(SCC(=O)Nc3ccccc3[N+](=O)[O-])o2)cc1 : reported GI50 = ?
34.4 µM (inactive)

Entry COc1ccc(C2Cc3cc(OC)c(OC)c(OC)c3C2)cc1 (stereo unspecified) : reported GI50 = ?
38.8 µM (inactive)

Entry Clc1ccccc1C(c1ccccc1)(c1ccccc1)n1ccnc1 : reported GI50 = ?
5.66 µM (inactive)

Entry O=c1nc2sc3ccc4ccccc4c3n2nc1-c1ccccc1 : reported GI50 = ?
19 µM (inactive)

Entry Cc1ccc(/N=N/c2c(C)nn(-c3ccccc3)c2-c2ccccc2)c(Br)c1 : reported GI50 = ?
> 100 µM (inactive)
